Target: human CYP11B2 (Homo sapiens (Human), UniProt P19099)
Sequence (P19099 25-503): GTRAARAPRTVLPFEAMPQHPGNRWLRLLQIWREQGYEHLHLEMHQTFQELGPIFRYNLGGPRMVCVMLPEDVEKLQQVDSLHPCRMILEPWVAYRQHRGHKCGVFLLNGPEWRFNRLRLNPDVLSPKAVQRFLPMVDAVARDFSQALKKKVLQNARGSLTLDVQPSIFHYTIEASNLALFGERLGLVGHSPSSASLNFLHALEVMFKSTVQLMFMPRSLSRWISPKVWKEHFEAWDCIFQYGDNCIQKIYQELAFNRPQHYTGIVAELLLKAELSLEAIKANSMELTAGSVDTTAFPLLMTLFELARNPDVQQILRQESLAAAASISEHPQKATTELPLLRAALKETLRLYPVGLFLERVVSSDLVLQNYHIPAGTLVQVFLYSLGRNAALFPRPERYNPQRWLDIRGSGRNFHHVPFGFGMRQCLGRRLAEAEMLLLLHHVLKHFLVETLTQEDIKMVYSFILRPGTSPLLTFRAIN
Assay: G-402 cellular enzyme assay, human CYP11B2 (aldosterone release, HTRF)
Settings: G-402 cells expressing human CYP11B2; 1 μM Deoxycorticosterone
The following compounds are listed with their measured pEC50 values.
Kindly note that pEC50 refers to -log10 of the concentration in mol/L and answer with the value alone.

Would you please look over these solved cases?
COC(=O)c1cccc(-c2[nH]ncc2Oc2ccc(C#N)cc2)c1 [Example 33] ... 7.76
Fc1cc(C(F)(F)F)ccc1-c1[nH]ncc1Oc1ccc(Cl)cc1 [Example 13] ... 6.39
N#Cc1ccc(Oc2cn[nH]c2-c2cccc(C(=O)N3CCOCC3)c2)cc1 [Example 45] ... 6.40
N#Cc1ccc(Oc2cn[nH]c2-c2cccc(Cl)c2F)cc1 [Example 30] ... 8.10
N#Cc1ccc(Oc2cn[nH]c2-c2ccccc2OCc2cccnc2)cc1 [Example 77] ... 9.52
N#Cc1ccc(Oc2cn[nH]c2C2CCCN(C(=O)c3cccnc3)C2)cc1 (racemic) [Example 64] ... 6.39
N#Cc1ccc(Oc2cn[nH]c2-c2cccc(C(=O)N3CC(CO)C3)c2)cc1 [Example 47] ... 6.55
N#Cc1ccc(Oc2cn[nH]c2-c2cccc(OCc3ccccn3)c2)cc1 [Example 50] ... 7.98

Next item in the queue.
Enquiry: Retrieve pEC50 on human CYP11B2 (Homo sapiens (Human), UniProt P19099); query Fc1cccc(-c2[nH]ncc2Oc2ccc(Cl)cc2)c1F [Example 1]
Return: 7.53

====

Target: human CYP11B1 (Homo sapiens (Human), UniProt P15538)
Sequence (P15538 25-503): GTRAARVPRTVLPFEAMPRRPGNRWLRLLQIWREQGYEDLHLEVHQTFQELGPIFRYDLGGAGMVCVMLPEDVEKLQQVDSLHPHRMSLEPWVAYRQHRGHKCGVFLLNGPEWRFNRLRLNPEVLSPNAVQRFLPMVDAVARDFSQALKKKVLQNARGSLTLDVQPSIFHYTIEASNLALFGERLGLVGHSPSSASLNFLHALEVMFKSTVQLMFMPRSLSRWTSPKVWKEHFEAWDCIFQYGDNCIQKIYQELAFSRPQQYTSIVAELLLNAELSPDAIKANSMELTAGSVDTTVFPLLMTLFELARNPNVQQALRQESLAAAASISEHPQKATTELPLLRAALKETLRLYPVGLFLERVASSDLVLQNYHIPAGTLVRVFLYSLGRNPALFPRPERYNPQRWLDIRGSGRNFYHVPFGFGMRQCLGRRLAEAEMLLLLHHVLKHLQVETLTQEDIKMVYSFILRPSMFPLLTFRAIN
Test: G-402 cellular enzyme assay, human CYP11B1 (cortisol release, HTRF)
Assay type: cell-based
Settings: G-402 cells expressing human CYP11B1; 1 μM Deoxycortisol
Assay readout: pEC50
Kindly note that pEC50 refers to -log10 of the concentration in mol/L and answer with the value alone.

Cn1cc(C(=O)N2CCCC(c3[nH]ncc3Oc3ccc(C#N)cc3F)C2)cn1 (racemic) [Example 89] ... 5.11
Fc1cccc(Oc2cn[nH]c2-c2ccc(Cl)cc2Cl)n1 [Example 21] ... 6.07
N#Cc1ccc(Oc2cn[nH]c2-c2cccc(Cl)c2F)cc1 [Example 30] ... 6.72
CCCCOc1cccc(-c2[nH]ncc2Oc2ccc(C#N)cc2)c1 [Example 59] ... 6.99
Cn1cc(-c2[nH]ncc2Oc2ccc(C#N)cc2)cn1 [Example 67] ... 5.49

Enquiry: Tell me measured pEC50 for Fc1c(Cl)cccc1-c1[nH]ncc1Oc1ccc(Cl)cc1 [Example 31] please.
Return: 5.74

Enquiry: Tell me measured pEC50 for N#Cc1ccc(Oc2cn[nH]c2-c2cccc(OCc3ccncc3)c2)cc1 [Example 54] please.
Return: 7.33

====

Biological target: human CYP11B1 (Homo sapiens (Human), UniProt P15538)
Experiment: G-402 cellular enzyme assay, human CYP11B1 (cortisol release, HTRF)
Conditions: G-402 cells expressing human CYP11B1; 1 μM Deoxycortisol
The following molecules are listed with their measured pEC50 values.
Kindly note that pEC50 refers to -log10 of the concentration in mol/L and answer with the value alone.

COc1ccc(Cl)cc1-c1[nH]ncc1Oc1ccc(Cl)cc1 ... 6.08
CS(=O)(=O)N1CCN(C(=O)c2cccc(-c3[nH]ncc3Oc3ccc(C#N)cc3)c2)CC1 ... 4.97
Cn1nncc1COc1c(Cl)cccc1-c1[nH]ncc1Oc1ccc(C#N)cc1 ... 5.80
N#Cc1ccc(Oc2cn[nH]c2-c2cccc(CN3CC(F)(CO)C3)c2)cc1 ... 7.44
FC(F)Oc1ccccc1-c1[nH]ncc1Oc1ccc(Cl)cc1 ... 7.12
CC(=O)N1CCCC(c2[nH]ncc2Oc2ccc(C#N)cc2)C1 (racemic) ... 5.64
FC(F)(F)c1ccc(-c2[nH]ncc2Oc2ccc(Cl)cc2)cc1 ... 5.57
N#Cc1ccc(Oc2cn[nH]c2-c2cccc(OCc3ccnc(Cl)c3)c2)cc1 ... 6.54

Enquiry: Tell me measured pEC50 for N#Cc1ccc(Oc2cn[nH]c2-c2cccc(OCc3ccncc3)c2F)cc1 please.
Return: 8.28

Enquiry: Tell me measured pEC50 for N#Cc1ccc(Oc2cn[nH]c2-c2ccccc2OCc2cccnc2)cc1 please.
Return: 7.94

Enquiry: Tell me measured pEC50 for N#Cc1ccc(Oc2cn[nH]c2-c2cccc(Cl)c2)cc1 please.
Return: 6.27

Enquiry: Tell me measured pEC50 for Cc1ncc(-c2[nH]ncc2Oc2ccc(C#N)cc2)s1 please.
Return: 5.69

Enquiry: Tell me measured pEC50 for N#Cc1ccc(Oc2cn[nH]c2-c2cccc(OCc3ccccn3)c2)cc1 please.
Return: 7.29

====

The following compounds are listed with their measured log10 of EC50 values.
Biological target: human CYP11B1 (Homo sapiens (Human))
Assay: G-402 cellular enzyme assay, human CYP11B1 (cortisol release, HTRF)
Settings: G-402 cells expressing human CYP11B1; 1 μM Deoxycortisol
All values: log10 EC50 [nM].

Fc1ccccc1-c1[nH]ncc1Oc1ccc(Cl)cc1 [Example 9] ... 2.22
N#Cc1ccc(Oc2cn[nH]c2-c2cccc(C(=O)N3CC(CO)C3)c2)cc1 [Example 47] ... 2.20
N#Cc1ccc(Oc2cn[nH]c2-c2cccc(COc3cccnc3)c2)cc1 [Example 70] ... 1.58

Enquiry: Tell me measured log10 of EC50 for N#Cc1ccc(Oc2cn[nH]c2-c2cccc(C[n+]3cccc([O-])c3)c2)cc1 [Example 71] please.
Return: 3.77

Enquiry: Tell me measured log10 of EC50 for CS(=O)(=O)c1ccc(-c2[nH]ncc2Oc2ccc(Cl)cc2)cc1 [Example 12] please.
Return: 2.78

Enquiry: Tell me measured log10 of EC50 for Clc1ccc(Oc2cn[nH]c2-c2ccc(Cl)cc2)cc1 [Example 3] please.
Return: 3.14

Enquiry: Tell me measured log10 of EC50 for Clc1ccc(Oc2cn[nH]c2-c2ccccc2Cl)cn1 [Example 19] please.
Return: 2.59

====

Biological target: human CYP11B2 (Homo sapiens (Human), UniProt P19099)
Assay: G-402 cellular enzyme assay, human CYP11B2 (aldosterone release, HTRF)
Type: cell-based
Settings: G-402 cells expressing human CYP11B2; 1 μM Deoxycorticosterone
Mark true for EC50 under 10 nM, false if at or over.

Answered examples (4):
COC(=O)c1cccc(-c2[nH]ncc2Oc2ccc(C#N)cc2F)c1 [Example 38] ... false
N#Cc1ccc(Oc2cn[nH]c2-c2ccccc2Cl)c(F)c1 [Example 28] ... true
N#Cc1ccc(Oc2cn[nH]c2-c2ccccc2OCc2ccncc2)cc1 [Example 76] ... true
Fc1cc(Cl)ccc1-c1[nH]ncc1Oc1ccc(C(F)(F)F)cc1 [Example 27] ... false

Enquiry: Please indicate whether the reported EC50 of Cc1cc(COc2cccc(-c3[nH]ncc3Oc3ccc(C#N)cc3)c2)on1 [Example 52] is strictly below 10 nM.
Return: false

Enquiry: Please indicate whether the reported EC50 of Cn1cc(C(=O)N2CCCC(c3[nH]ncc3Oc3ccc(C#N)cc3)C2)cn1 (racemic) [Example 63] is strictly below 10 nM.
Return: false

Enquiry: Please indicate whether the reported EC50 of N#Cc1ccc(Oc2cn[nH]c2-c2ccccc2C(=O)O)cc1 [Example 40] is strictly below 10 nM.
Return: false

Enquiry: Please indicate whether the reported EC50 of CS(=O)(=O)c1ccc(-c2[nH]ncc2Oc2ccc(C#N)cc2)cc1 [Example 18] is strictly below 10 nM.
Return: false

Enquiry: Please indicate whether the reported EC50 of N#Cc1ccc(Oc2cn[nH]c2-c2ccccc2Cl)cc1 [Example 25] is strictly below 10 nM.
Return: true

====

Molecular target: human CYP11B1 (Homo sapiens (Human))
Test: G-402 cellular enzyme assay, human CYP11B1 (cortisol release, HTRF)
Details: G-402 cells expressing human CYP11B1; 1 μM Deoxycortisol
The following compounds are listed with their measured EC50 values.

COc1ccc(Oc2cn[nH]c2-c2ccc(Cl)cc2)cc1 ... 1970 nM

Enquiry: Tell me measured EC50 for N#Cc1ccc(Oc2cn[nH]c2-c2ccccc2C(=O)O)cc1 please.
Return: > 30000 nM

Enquiry: Tell me measured EC50 for Fc1ccc(-c2[nH]ncc2Oc2ccc(Cl)cc2)c(F)c1 please.
Return: 159 nM

Enquiry: Tell me measured EC50 for CC(=O)N1CCN(C(=O)c2cccc(-c3[nH]ncc3Oc3ccc(C#N)cc3)c2)CC1 please.
Return: > 30000 nM

Enquiry: Tell me measured EC50 for Cc1cccc(Oc2c[nH]nc2-c2ccc(Cl)cc2Cl)n1 please.
Return: 611 nM

Enquiry: Tell me measured EC50 for COC(=O)c1cccc(-c2[nH]ncc2Oc2ccc(C#N)cc2F)c1 please.
Return: 321 nM

Enquiry: Tell me measured EC50 for N#Cc1ccc(Oc2cn[nH]c2C2CCCN(C(=O)c3cccnc3)C2)cc1 (racemic) please.
Return: 8160 nM

Enquiry: Tell me measured EC50 for N#Cc1ccc(Oc2cn[nH]c2-c2ccccc2Cl)cc1 please.
Return: 18.5 nM

Enquiry: Tell me measured EC50 for N#Cc1ccc(Oc2cn[nH]c2-c2cccc(OCc3cccnc3)c2)cc1 please.
Return: 51.3 nM
